B1: glmS ribozyme (parent)
chain: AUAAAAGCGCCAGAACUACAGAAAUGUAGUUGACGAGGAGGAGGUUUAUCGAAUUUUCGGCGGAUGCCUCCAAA

# Variants of: B1
# PROCEDURE_DETAILS: self-cleavage kobs at 640 uM GlcN6P; higher = faster cleavage; RNA array
# CONDITION_DETAILS: with glucosamine-6-phosphate
This sample holds only a part of the variants without activity.
Quick reference for self-cleavage kobs at 640 uM GlcN6P among some variants

>  <MUTANT_LABEL>
A12G A39G

>  <self-cleavage kobs at 640 uM GlcN6P>
0.00022 s⁻¹

$$$$
>  <MUTANT_LABEL>
A52U C67A

>  <self-cleavage kobs at 640 uM GlcN6P>
6.53e-05 s⁻¹

$$$$
>  <MUTANT_LABEL>
G41A A48G

>  <self-cleavage kobs at 640 uM GlcN6P>
< 1e-05 s⁻¹

$$$$
>  <MUTANT_LABEL>
C11G A12C A52C G59U G66A C67G

>  <self-cleavage kobs at 640 uM GlcN6P>
< 1e-05 s⁻¹

$$$$
>  <MUTANT_LABEL>
C11G U47A

>  <self-cleavage kobs at 640 uM GlcN6P>
< 1e-05 s⁻¹

$$$$
>  <MUTANT_LABEL>
A6C U31C C70A

>  <self-cleavage kobs at 640 uM GlcN6P>
7.34e-05 s⁻¹

$$$$
>  <MUTANT_LABEL>
G7U U45G

>  <self-cleavage kobs at 640 uM GlcN6P>
< 1e-05 s⁻¹

$$$$
>  <MUTANT_LABEL>
C16G A36G G40A G63U

>  <self-cleavage kobs at 640 uM GlcN6P>
< 1e-05 s⁻¹

$$$$
>  <MUTANT_LABEL>
G43U A48C

>  <self-cleavage kobs at 640 uM GlcN6P>
< 1e-05 s⁻¹

$$$$
>  <MUTANT_LABEL>
A42U A53G

>  <self-cleavage kobs at 640 uM GlcN6P>
4.83e-05 s⁻¹

$$$$
>  <MUTANT_LABEL>
A52U U54A

>  <self-cleavage kobs at 640 uM GlcN6P>
5.55e-05 s⁻¹

$$$$
>  <MUTANT_LABEL>
G44C C67U

>  <self-cleavage kobs at 640 uM GlcN6P>
0.000532 s⁻¹

$$$$
>  <MUTANT_LABEL>
G40C G41A G43U

>  <self-cleavage kobs at 640 uM GlcN6P>
< 1e-05 s⁻¹

$$$$
>  <MUTANT_LABEL>
G41A G51U C68U C70G

>  <self-cleavage kobs at 640 uM GlcN6P>
< 1e-05 s⁻¹

$$$$
>  <MUTANT_LABEL>
G44A C58A C70U

>  <self-cleavage kobs at 640 uM GlcN6P>
< 1e-05 s⁻¹

$$$$
>  <MUTANT_LABEL>
A14G A39G

>  <self-cleavage kobs at 640 uM GlcN6P>
0.0236 s⁻¹

$$$$
>  <MUTANT_LABEL>
G32C U56C

>  <self-cleavage kobs at 640 uM GlcN6P>
< 1e-05 s⁻¹

$$$$
>  <MUTANT_LABEL>
G44C C68G

>  <self-cleavage kobs at 640 uM GlcN6P>
< 1e-05 s⁻¹

$$$$
>  <MUTANT_LABEL>
A33U C34G U49A A53U

>  <self-cleavage kobs at 640 uM GlcN6P>
< 1e-05 s⁻¹

$$$$
>  <MUTANT_LABEL>
A15G U31C

>  <self-cleavage kobs at 640 uM GlcN6P>
0.00208 s⁻¹

$$$$
>  <MUTANT_LABEL>
C8U U30A U31C A48U C68U

>  <self-cleavage kobs at 640 uM GlcN6P>
< 1e-05 s⁻¹

$$$$
>  <MUTANT_LABEL>
G37C G40C U49A

>  <self-cleavage kobs at 640 uM GlcN6P>
< 1e-05 s⁻¹

$$$$
>  <MUTANT_LABEL>
A6G U47C U55C C71U

>  <self-cleavage kobs at 640 uM GlcN6P>
< 1e-05 s⁻¹

$$$$
>  <MUTANT_LABEL>
U45G U46C

>  <self-cleavage kobs at 640 uM GlcN6P>
0.0019 s⁻¹

$$$$
>  <MUTANT_LABEL>
A33C G35C U49G G59C

>  <self-cleavage kobs at 640 uM GlcN6P>
< 1e-05 s⁻¹

$$$$
>  <MUTANT_LABEL>
G66C C70A

>  <self-cleavage kobs at 640 uM GlcN6P>
4.17e-05 s⁻¹

$$$$
>  <MUTANT_LABEL>
G38C C71U

>  <self-cleavage kobs at 640 uM GlcN6P>
< 1e-05 s⁻¹

$$$$
>  <MUTANT_LABEL>
A39C U46C

>  <self-cleavage kobs at 640 uM GlcN6P>
0.000488 s⁻¹

$$$$
>  <MUTANT_LABEL>
A6G G9U C58A

>  <self-cleavage kobs at 640 uM GlcN6P>
< 1e-05 s⁻¹

$$$$
>  <MUTANT_LABEL>
U49C G62A

>  <self-cleavage kobs at 640 uM GlcN6P>
< 1e-05 s⁻¹

$$$$
>  <MUTANT_LABEL>
U47C U56C A64G

>  <self-cleavage kobs at 640 uM GlcN6P>
6.85e-05 s⁻¹

$$$$
>  <MUTANT_LABEL>
G51C G59A

>  <self-cleavage kobs at 640 uM GlcN6P>
< 1e-05 s⁻¹

$$$$
>  <MUTANT_LABEL>
G37A G41A

>  <self-cleavage kobs at 640 uM GlcN6P>
3.79e-05 s⁻¹

$$$$
>  <MUTANT_LABEL>
A52C U57G U69G

>  <self-cleavage kobs at 640 uM GlcN6P>
8.06e-05 s⁻¹

$$$$
>  <MUTANT_LABEL>
C50U C71G

>  <self-cleavage kobs at 640 uM GlcN6P>
4.43e-05 s⁻¹

$$$$
>  <MUTANT_LABEL>
A12C G63U

>  <self-cleavage kobs at 640 uM GlcN6P>
< 1e-05 s⁻¹

$$$$
>  <MUTANT_LABEL>
C8A U57A

>  <self-cleavage kobs at 640 uM GlcN6P>
< 1e-05 s⁻¹

$$$$
>  <MUTANT_LABEL>
G13C G43U G59U

>  <self-cleavage kobs at 640 uM GlcN6P>
< 1e-05 s⁻¹

$$$$
>  <MUTANT_LABEL>
C10A A48C U56C

>  <self-cleavage kobs at 640 uM GlcN6P>
< 1e-05 s⁻¹

$$$$
>  <MUTANT_LABEL>
C61G G62A C67U C68A

>  <self-cleavage kobs at 640 uM GlcN6P>
4.43e-05 s⁻¹

$$$$
>  <MUTANT_LABEL>
G38U G66U

>  <self-cleavage kobs at 640 uM GlcN6P>
< 1e-05 s⁻¹

$$$$
>  <MUTANT_LABEL>
C8U U49A

>  <self-cleavage kobs at 640 uM GlcN6P>
< 1e-05 s⁻¹

$$$$
>  <MUTANT_LABEL>
A12G G29A A36G U49C U57G C70A

>  <self-cleavage kobs at 640 uM GlcN6P>
< 1e-05 s⁻¹

$$$$
>  <MUTANT_LABEL>
C10U G35C G60A

>  <self-cleavage kobs at 640 uM GlcN6P>
< 1e-05 s⁻¹

$$$$
>  <MUTANT_LABEL>
G7U C67U C71G

>  <self-cleavage kobs at 640 uM GlcN6P>
7.36e-05 s⁻¹

$$$$
>  <MUTANT_LABEL>
C8G G43U U65A C71G

>  <self-cleavage kobs at 640 uM GlcN6P>
< 1e-05 s⁻¹

$$$$
>  <MUTANT_LABEL>
C11U A48G C68U

>  <self-cleavage kobs at 640 uM GlcN6P>
< 1e-05 s⁻¹

$$$$
>  <MUTANT_LABEL>
G35A G62C

>  <self-cleavage kobs at 640 uM GlcN6P>
< 1e-05 s⁻¹

$$$$
>  <MUTANT_LABEL>
A33U U65G

>  <self-cleavage kobs at 640 uM GlcN6P>
< 1e-05 s⁻¹

$$$$
>  <MUTANT_LABEL>
G29U G63U

>  <self-cleavage kobs at 640 uM GlcN6P>
< 1e-05 s⁻¹

$$$$
>  <MUTANT_LABEL>
G51C A52U

>  <self-cleavage kobs at 640 uM GlcN6P>
< 1e-05 s⁻¹

$$$$
>  <MUTANT_LABEL>
G59A G60U C67U

>  <self-cleavage kobs at 640 uM GlcN6P>
< 1e-05 s⁻¹

$$$$
>  <MUTANT_LABEL>
G7A U55C C58G

>  <self-cleavage kobs at 640 uM GlcN6P>
< 1e-05 s⁻¹

$$$$
>  <MUTANT_LABEL>
A6G C50G C68U

>  <self-cleavage kobs at 640 uM GlcN6P>
0.000189 s⁻¹

$$$$
>  <MUTANT_LABEL>
G13C A42U U57A G63C

>  <self-cleavage kobs at 640 uM GlcN6P>
< 1e-05 s⁻¹

$$$$
>  <MUTANT_LABEL>
C34U G59U

>  <self-cleavage kobs at 640 uM GlcN6P>
< 1e-05 s⁻¹

$$$$
>  <MUTANT_LABEL>
C61U G66C

>  <self-cleavage kobs at 640 uM GlcN6P>
< 1e-05 s⁻¹

$$$$
>  <MUTANT_LABEL>
A6U C70G

>  <self-cleavage kobs at 640 uM GlcN6P>
3.81e-05 s⁻¹

$$$$
>  <MUTANT_LABEL>
U56G C67A

>  <self-cleavage kobs at 640 uM GlcN6P>
0.00102 s⁻¹

$$$$
>  <MUTANT_LABEL>
G40U U47G

>  <self-cleavage kobs at 640 uM GlcN6P>
0.000262 s⁻¹

$$$$
>  <MUTANT_LABEL>
U30A U69G C71A

>  <self-cleavage kobs at 640 uM GlcN6P>
0.00266 s⁻¹

$$$$
>  <MUTANT_LABEL>
G13C A39C C61A C70U

>  <self-cleavage kobs at 640 uM GlcN6P>
< 1e-05 s⁻¹

$$$$
>  <MUTANT_LABEL>
G43A U69G

>  <self-cleavage kobs at 640 uM GlcN6P>
< 1e-05 s⁻¹

$$$$
>  <MUTANT_LABEL>
G37A G66U

>  <self-cleavage kobs at 640 uM GlcN6P>
5.56e-05 s⁻¹

$$$$
>  <MUTANT_LABEL>
U49C G63C C67G C68G

>  <self-cleavage kobs at 640 uM GlcN6P>
< 1e-05 s⁻¹

$$$$
>  <MUTANT_LABEL>
U31C U56G G60C

>  <self-cleavage kobs at 640 uM GlcN6P>
< 1e-05 s⁻¹

$$$$
>  <MUTANT_LABEL>
A15U G35U U46A

>  <self-cleavage kobs at 640 uM GlcN6P>
< 1e-05 s⁻¹

$$$$
>  <MUTANT_LABEL>
G43C G44A C68A

>  <self-cleavage kobs at 640 uM GlcN6P>
< 1e-05 s⁻¹

$$$$
>  <MUTANT_LABEL>
G13C A15C C61U A64U C67A

>  <self-cleavage kobs at 640 uM GlcN6P>
< 1e-05 s⁻¹

$$$$
>  <MUTANT_LABEL>
G7C C10A C71A

>  <self-cleavage kobs at 640 uM GlcN6P>
< 1e-05 s⁻¹

$$$$
>  <MUTANT_LABEL>
U30G U54G U56G

>  <self-cleavage kobs at 640 uM GlcN6P>
0.000994 s⁻¹

$$$$
>  <MUTANT_LABEL>
C10A G63A U69A C71U

>  <self-cleavage kobs at 640 uM GlcN6P>
0.000215 s⁻¹

$$$$
>  <MUTANT_LABEL>
C58G

>  <self-cleavage kobs at 640 uM GlcN6P>
3.47e-05 s⁻¹

$$$$
>  <MUTANT_LABEL>
C11A A42C

>  <self-cleavage kobs at 640 uM GlcN6P>
< 1e-05 s⁻¹

$$$$
>  <MUTANT_LABEL>
A12C U55C

>  <self-cleavage kobs at 640 uM GlcN6P>
0.00235 s⁻¹

$$$$
>  <MUTANT_LABEL>
A12U G13U A48U G51C U54G C71U

>  <self-cleavage kobs at 640 uM GlcN6P>
< 1e-05 s⁻¹

$$$$
>  <MUTANT_LABEL>
G44A C71G

>  <self-cleavage kobs at 640 uM GlcN6P>
< 1e-05 s⁻¹

$$$$
>  <MUTANT_LABEL>
A14C G41A C70U

>  <self-cleavage kobs at 640 uM GlcN6P>
0.00173 s⁻¹

$$$$
>  <MUTANT_LABEL>
A48U A53U

>  <self-cleavage kobs at 640 uM GlcN6P>
0.000104 s⁻¹

$$$$
>  <MUTANT_LABEL>
C8G U31G C50G

>  <self-cleavage kobs at 640 uM GlcN6P>
7.77e-05 s⁻¹

$$$$
>  <MUTANT_LABEL>
U46C C61G

>  <self-cleavage kobs at 640 uM GlcN6P>
< 1e-05 s⁻¹

$$$$
>  <MUTANT_LABEL>
G35A G38U A42C U55C

>  <self-cleavage kobs at 640 uM GlcN6P>
< 1e-05 s⁻¹

$$$$
>  <MUTANT_LABEL>
C8G G29A

>  <self-cleavage kobs at 640 uM GlcN6P>
< 1e-05 s⁻¹

$$$$
>  <MUTANT_LABEL>
C11A A14C G44A G66U

>  <self-cleavage kobs at 640 uM GlcN6P>
< 1e-05 s⁻¹

$$$$
>  <MUTANT_LABEL>
A36U G43A

>  <self-cleavage kobs at 640 uM GlcN6P>
< 1e-05 s⁻¹

$$$$
>  <MUTANT_LABEL>
A39G U47G

>  <self-cleavage kobs at 640 uM GlcN6P>
0.00207 s⁻¹

$$$$
>  <MUTANT_LABEL>
G32A A53U

>  <self-cleavage kobs at 640 uM GlcN6P>
0.000595 s⁻¹

$$$$
>  <MUTANT_LABEL>
G29C G37C C68G

>  <self-cleavage kobs at 640 uM GlcN6P>
7.66e-05 s⁻¹

$$$$
>  <MUTANT_LABEL>
C11G A36G

>  <self-cleavage kobs at 640 uM GlcN6P>
< 1e-05 s⁻¹

$$$$
>  <MUTANT_LABEL>
C11U A64U

>  <self-cleavage kobs at 640 uM GlcN6P>
< 1e-05 s⁻¹

$$$$
>  <MUTANT_LABEL>
A14U G40C

>  <self-cleavage kobs at 640 uM GlcN6P>
0.000142 s⁻¹

$$$$

Data credit: the supplement of paper PMC7125110
